All values here come from the nanobody polyreactivity screen of Harvey et al. (2022).

method: yeast display, Sf9 membrane polyspecificity reagent, FACS + sequencing; frameworks hold sequencing errors

[
  {
    "biosequence": "QVQLVESGGGLVQAGGSLRLSCASSGSTFPGNAMGWYRQAPGKERELVAAIRDRGTSTYYADSVKGRFTISRDNAKNNVYLQMNSLKPEDTAVYYCAAASRVAKGRWRLYDDWGQGTQVTVSS",
    "polyreactivity (PSR sort gate)": "high polyreactivity"
  },
  {
    "biosequence": "QVQLVESGGGLVQAGGSLRLSCAASGSILQYYAMGWYRQTPGKERELVAAITSGGSTYYADSVKGRFTISRDNAKNTVYLQMNSLKPEDTAVYYCAKVYRRAQYDYCGQGTQVTVSS",
    "polyreactivity (PSR sort gate)": "low polyreactivity"
  },
  {
    "biosequence": "QVQLVESGGGLVQAGGSLRLICAASGFTLTRNAMGWYRQAPGKESELVAAISWSGGTTYYADSVKGRFTISRDNAKNTVYLQMNSLKPEDTAFYYCNTASWRDQYYYWGQVTQVTVSS",
    "polyreactivity (PSR sort gate)": "high polyreactivity"
  },
  {
    "biosequence": "QVQLVESGGGLDQAGGSLRLSCAASGRTFRYYAMGWYRQAPWKESDLVATITGSGGSTYYADSVKGRFTISRDNSKNTVYLQMYSLKPEDTAVYYCNARKVRYPYRWYDYWGQGTQVTVSS",
    "polyreactivity (PSR sort gate)": "high polyreactivity"
  },
  {
    "biosequence": "QVQLVESGGGLLQAGGSLRLSCAASGSTIWSYAMGWYRQAPGKERELVASITWSGGSTYADSVKGRFTISRDNAKNTVYLQMNSLKPEDTAVYYCAADRGSYPDTGDYWGHGTQVTVSS",
    "polyreactivity (PSR sort gate)": "low polyreactivity"
  },
  {
    "biosequence": "QVQLVESGGGLVQAGGSLRLSCAASGRIFYRYAMGWYRQAPGKERELVATISRSGGSTNYADSVKGRFTISRDNAKNTVYLQMNSLKPEDTAVYYCNALYLSTRSGDYWGQGTQVTVSS",
    "polyreactivity (PSR sort gate)": "high polyreactivity"
  },
  {
    "biosequence": "QVQLVESGGGLVQSGGSLRLICAASGRNYAMGWYRQAPGKERELVARITKSGTSTYYADSVKGRFTISRDNAKNTVYLQMNSLKPEDTAVYYCNARYWGYWGDHYDYWGQGTQVTVSS",
    "polyreactivity (PSR sort gate)": "high polyreactivity"
  },
  {
    "biosequence": "QVQHVESGGGLVQAGGSLRLSCAASGFTFTRYAMGWYRQAPGKERELVAAISRGGTTYADSVKGRFTISRDNAKNTVYLQMNSLKPEDTAVYYCNRLRYGYPQEFGYWGQGTQVTVSS",
    "polyreactivity (PSR sort gate)": "high polyreactivity"
  },
  {
    "biosequence": "QVQLVESGGGLVQAGGSLRLSCAASGRIFNSNTMGWYRQAPGKERELVAAITYSGGSTYYADSVKGRFTISRDNAKNTVYLQMNSLNPEDTAVYYCAADFWEYDGPWYANDYDSWGQGTQVTVSS",
    "polyreactivity (PSR sort gate)": "low polyreactivity"
  },
  {
    "biosequence": "QVQLVEAGVGLVQAVGSLRLSCAASGYIFVVNAMGWYRQAPGKERELVASITWSGDNTYYADSVKGRFTISRDNAKNTVYLQMNSLKPEDTAVYYCAATIWIAYRGWYSDYNYWGQGTQVTVSS",
    "polyreactivity (PSR sort gate)": "low polyreactivity"
  },
  {
    "biosequence": "QVQLVESGGGLVQAGGSLRLSCAASGSIFQYYVMGWYRQAPGKERELVAAISQSGGRTYYADSVKGRFTISRDNAKNTFYLQMNSLKPEDTAVYYCAAYSRNAEYDYWGQGTQVTVSS",
    "polyreactivity (PSR sort gate)": "high polyreactivity"
  }
]
